# Assayed System: PLE
# Test: SPR binding, PLE
# Details: Table 8
Recorded Endpoint: Kd (µM)

> print(dat)
                            chemical.smiles  assayed.system  unit.string  value.reported
1  CCOC(=O)/C=C/c1c(O)c(OC)cc(NS(=O)(=O)c2cccs2)c1SC             PLE           µM             300
2  CCOC(=O)/C=C/c1cc(NS(=O)(=O)c2cccs2)c2c(c1O)OCO2             PLE           µM             261

###

# Assayed System: CNK1 PH-domain (CNKSR1) (Homo sapiens, UniProt Q969H4)
# Construct: The PH-domain His-fusion proteins (CNK1 and AKT1) were expressed and immobilized on a NTA chip; made in house
# Test: SPR binding assay (Biacore T100), CNK1 PH-domain
# Details: date 11 26 13
Recorded Endpoint: Surface Plasmon Resonance CNKSR1 stability (RU max post-injection) (RU * 100/Da)

a = COc1cc(NS(=O)(=O)c2cccs2)c(SC)c(/C=C/N2C(=O)CN(C)C2=O)c1O
b = CN1CC(=O)N(/C=C/c2cc(N(S(=O)(=O)c3cccs3)S(=O)(=O)c3cccs3)c3c(c2O)OCO3)C1=O
Query string: Which record would sort first by descending Surface Plasmon Resonance CNKSR1 stability (RU max post-injection), a or b ? # respond with the chosen item's label
Result string: a

###

# Assayed System: CNK1 PH-domain (CNKSR1) (Homo sapiens)
# Construct: The PH-domain His-fusion proteins (CNK1 and AKT1) were expressed and immobilized on a NTA chip; made in house
# Sequence (Q969H4 403-502 limits assumed): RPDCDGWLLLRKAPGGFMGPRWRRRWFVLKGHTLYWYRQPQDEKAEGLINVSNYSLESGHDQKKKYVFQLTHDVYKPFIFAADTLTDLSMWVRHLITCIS
# Test: SPR binding assay (Biacore T100), CNK1 PH-domain
# Details: date 12 09 13
Recorded Endpoint: Surface Plasmon Resonance CNKSR1 binding (RU max) (RU * 100/Da)

> print(dat)
                                   compound  value.reported
1  CCOC(=O)/C=C/c1c(O)c(O)cc(N)c1SC [Compound 109]           1.527
2  CCOC(=O)/C=C/c1c(O)c(OC)cc(N)c1SC [Compound 107]          −0.174
3  COc1cc(N)c(SC)c(/C=C/C(=O)O)c1O [Compound 108]          −0.024
4  Cc1ccc(-c2csc(Cn3nc(C4OC5CCOC54)c4ccccc4c3=O)n2)cc1 (stereo not drawn) [Compound 124]          −0.369
5  O=C(O)CCc1cc(NS(=O)(=O)c2cccs2)c2c(c1O)OCO2 [Compound 90]          −7.809
6  CCOC(=O)Cc1nn(Cc2nc(-c3ccc(C)cc3)cs2)c(=O)c2ccccc12 [Compound 7]           0.205

1 = CCOC(=O)/C=C/c1cc(NS(=O)(=O)c2cccs2)c2c(c1OC)OCO2 [Compound 86]
2 = Cc1ccc(-c2csc(Cn3nc(CC(O)C[N+](=O)[O-])c4ccccc4c3=O)n2)cc1 (stereo not drawn) [Compound 125]
3 = CCOC(=O)CCc1cc(NS(=O)(=O)c2cccs2)c2c(c1OC)OCO2 [Compound 85]
Query string: Place the items in sequence of falling Surface Plasmon Resonance CNKSR1 binding (RU max). Please, when replying, give the labels in the order that was requested.
Result string: 3, 2, 1
(3: 1.026 RU * 100/Da, 2: −0.380 RU * 100/Da, 1: −0.807 RU * 100/Da)

###

# Assayed System: CNK1 PH-domain (CNKSR1) (Homo sapiens)
# Construct: The PH-domain His-fusion proteins (CNK1 and AKT1) were expressed and immobilized on a NTA chip; made in house
# Test: SPR binding assay (Biacore T100), CNK1 PH-domain
# Details: date 12 09 13
Recorded Endpoint: Surface Plasmon Resonance CNKSR1 stability (RU max post-injection) (RU * 100/Da)

I = CCOC(=O)/C=C/c1cc(NS(=O)(=O)c2cccs2)c2c(c1O)OCO2 [Compound 88]
II = Cc1ccc(-c2csc(Cn3nc(NS(=O)(=O)c4cccs4)c4ccccc4c3=O)n2)cc1 [Compound 5]
III = Cc1ccc(-c2csc(Cn3nc(C4OC5CCOC54)c4ccccc4c3=O)n2)cc1 (stereo not shown) [Compound 124]
IV = Cc1ccc(-c2csc(Cn3nc(CC(=O)NCCC(N)=O)c4ccccc4c3=O)n2)cc1 [Compound 81]
Query string: Thanks in advance: please rank these 4 entries by Surface Plasmon Resonance CNKSR1 stability (RU max post-injection), highest to lowest. Please, when replying, give the labels in the order that was requested.
Result string: I, IV, III, II
(I: 1.138 RU * 100/Da, IV: 0.154 RU * 100/Da, III: −0.053 RU * 100/Da, II: −0.158 RU * 100/Da)

###

# Test system: H226 (KRAS wildtype cell line)
# Test: Proliferation Assay H226
# Format: cell-based
# Details: Homo sapiens, NCI-H226, n = 1
Recorded Endpoint: IC50

A selection of reference data follows.
> print(dat)
                            chemical.smiles                  assayed.system  value.reported
1  CCOC(=O)Cc1nn(Cc2nc(-c3ccc(C)cc3)cs2)c(=O)c2ccccc12  H226 (KRAS wildtype cell line)        > 100 µM
2  CCNC(=O)Cc1nn(Cc2nc(-c3ccc(C)cc3)cs2)c(=O)c2ccccc12  H226 (KRAS wildtype cell line)           60 µM
3  CN1CC(=O)N(/C=C/c2cc(NS(=O)(=O)c3cccs3)c3c(c2O)OCO3)C1=O  H226 (KRAS wildtype cell line)        > 100 µM

Alright, here's another compound for you.
Query string: Sample `CCOC(=O)CCc1cc(NS(=O)(=O)c2cccs2)c2c(c1OC)OCO2` — what was its IC50?
Result string: > 100 µM

###

# Test: Mouse pharmacokinetics (iv)
# Assay type: in vivo
Recorded Endpoint: t1/2β (min)

A selection of reference data follows.
> print(dat)
                            chemical.smiles  recorded.endpoint  unit.string  value.reported
1  Cc1ccc(-c2csc(Cn3nc(CC4OCCCO4)c4ccccc4c3=O)n2)cc1              t1/2β          min             260
2  CCNC(=O)Cc1nn(Cc2nc(-c3ccc(C)cc3)cs2)c(=O)c2ccccc12              t1/2β          min              28
3  Cc1ccc(-c2csc(Cn3nc(CC(=O)N4CCN(C)CC4)c4ccccc4c3=O)n2)cc1              t1/2β          min             327

P = Cc1ccc(-c2csc(Cn3nc(CC(=O)O)c4ccccc4c3=O)n2)cc1
Q = Cc1ccc(-c2csc(Cn3nc(CC=O)c4ccccc4c3=O)n2)cc1
R = Cc1ccc(-c2csc(Cn3nc(Cc4nccs4)c4ccccc4c3=O)n2)cc1
Query string: Place the items in sequence of falling t1/2β. Please, when replying, give the labels in the order that was requested.
Result string: R, P, Q

###

# Assayed System: CNK1 PH-domain (CNKSR1) (Homo sapiens)
# Construct: The PH-domain His-fusion proteins (CNK1 and AKT1) were expressed and immobilized on a NTA chip; made in house
# Test: SPR binding assay (Biacore T100), CNK1 PH-domain
# Details: date 11 26 13
Recorded Endpoint: Surface Plasmon Resonance CNKSR1 binding (RU max) (RU * 100/Da)

> print(dat)
                            chemical.smiles  unit.string  value.reported
1  O=C1COC(=O)N1/C=C/c1cc(NS(=O)(=O)c2cccs2)c2c(c1O)OCO2  RU * 100/Da          −1.240
2  CN1CC(=O)N(/C=C/c2cc(NS(=O)(=O)c3cccs3)c3c(c2O)OCO3)C1=O  RU * 100/Da          −1.867

a = CN1CC(=O)N(/C=C/c2cc(N(S(=O)(=O)c3cccs3)S(=O)(=O)c3cccs3)c3c(c2O)OCO3)C1=O
b = CCOC(=O)Cc1nn(Cc2nc(-c3ccc(C)cc3)cs2)c(=O)c2ccccc12
c = COc1cc(NS(=O)(=O)c2cccs2)c(SC)c(/C=C/N2C(=O)COC2=O)c1O
d = CCOC(=O)/C=C/c1cc(NS(=O)(=O)c2cccs2)c2c(c1OC)OCO2
e = COc1cc(NS(=O)(=O)c2cccs2)c(SC)c(/C=C/N2C(=O)CN(C)C2=O)c1O
Query string: Place the items in sequence of falling Surface Plasmon Resonance CNKSR1 binding (RU max). Please, when replying, give the labels in the order that was requested.
Result string: b, a, e, d, c
(b: 5.019 RU * 100/Da, a: 1.409 RU * 100/Da, e: 0.457 RU * 100/Da, d: −0.133 RU * 100/Da, c: −1.537 RU * 100/Da)
